target: GST-BCL-2δC21 fusion protein [GST: P08515]; experiment: fluorescence polarization, 25 nM fluorescein-peptide titrated with GST-BCL-2, 37 C; SD +/- 6
Ends that are not written are not given here.
Endpoint: Kd (nM)
Respond numerically; units are nM and should not be typed.

Ask: Return reported Kd; argument: LWAAQRYGRELRRMSDEFEGSFKGL (not fully specified) [mBADBH3]
Result: 39

Source: patent US20160200786A1
